Biological target: UniProtKB Q9Y7D1
Assay: LovD transacylation assay: acyl transfer from acyl thioester to C8 hydroxyl of monacolin J, HPLC
Format: biochemical
Set-up: 6xHis (N); made in house; host or cells: E. coli BL21(DE3)/pAW31 (pET28a)
Conditions: 1 mM MJ, 4 mM thioester substrate, 10 uM pure LovD, 50 mM HEPES, pH 7.9; rate of initial turnover in the linear range
Reported Initial Velocity (ki) is given for each of the following compounds.
value kind: Initial Velocity (ki) (min⁻¹)

> print(dat)
                                   compound  experimental.system             value.kind  unit.spec  reported
1                 CCOC(=O)CCSC(=O)C(C)(C)CC     UniProtKB Q9Y7D1  Initial Velocity (ki)      min⁻¹      0.70
2                  CCC(C)(C)C(=O)SCCNC(C)=O     UniProtKB Q9Y7D1  Initial Velocity (ki)      min⁻¹      0.02
3                 CCC(C)(C)C(=O)SCCCC(=O)OC     UniProtKB Q9Y7D1  Initial Velocity (ki)      min⁻¹      0.78
4  CCC(C)(C)C(=O)SCC(=O)OC [DMB-S-MTG, dimethylbutyryl-S-methyl thioglycolate]     UniProtKB Q9Y7D1  Initial Velocity (ki)      min⁻¹      0.03

====

Target: LovD (Aspergillus terreus)
Sequence (Q9Y7D1 whole entry): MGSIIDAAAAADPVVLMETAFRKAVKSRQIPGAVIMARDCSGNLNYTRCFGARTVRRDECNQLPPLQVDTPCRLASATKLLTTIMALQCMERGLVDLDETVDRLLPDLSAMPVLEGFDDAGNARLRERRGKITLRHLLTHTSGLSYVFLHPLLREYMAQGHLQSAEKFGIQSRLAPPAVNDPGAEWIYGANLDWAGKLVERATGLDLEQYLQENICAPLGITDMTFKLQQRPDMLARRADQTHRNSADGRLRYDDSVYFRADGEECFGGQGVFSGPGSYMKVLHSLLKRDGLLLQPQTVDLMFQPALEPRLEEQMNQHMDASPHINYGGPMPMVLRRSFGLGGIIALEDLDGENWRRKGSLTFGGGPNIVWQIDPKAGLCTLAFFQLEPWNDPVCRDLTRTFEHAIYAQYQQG
Test: LovD transacylation assay: acyl transfer from acyl thioester to C8 hydroxyl of monacolin J, HPLC
Assay type: biochemical
Set-up: 6xHis (N); made in house; host or cells: E. coli BL21(DE3)/pAW31 (pET28a)
Conditions: 1 mM monacolin J, 4 mM acyl-CoA, 10 uM LovD, 10 hours
Method: We first examined if an acyl-CoA can be used as substrate for the transacylation reaction. […] The reaction mixture was incubated at room temperature, extracted with ethyl acetate and analyzed by HPLC and LC-MS (FIG. 5). […] Expression and purification of LovD has been previously described in detail (see, e.g., Xie et al., 2006, Chem Biol 13: 1161-1169). […] The initial velocities (ki) of the acyl substrates were determined with 10 μM LovD, 1 mM monacolin J and 4 mM of the thioester. […]

compound	experimental system	substrate competence for LovD
CCCCCCCCCCCCCCCC(=O)SCCNC(=O)CCNC(=O)[C@H](O)C(C)(C)COP(=O)(O)OP(=O)(O)OC[C@H]1O[C@@H](n2cnc3c(N)ncnc32)[C@H](O)[C@@H]1OP(=O)(O)O [palmitoyl-CoA, reference compound]	LovD (Aspergillus terreus)	inactive
CC(=O)CC(=O)SCCNC(=O)CCNC(=O)[C@H](O)C(C)(C)COP(=O)(O)OP(=O)(O)OC[C@H]1O[C@@H](n2cnc3c(N)ncnc32)[C@H](O)[C@@H]1OP(=O)(O)O [Acetoacetyl-CoA, reference compound]	LovD (Aspergillus terreus)	excellent substrates
CC(O)CC(=O)SCCNC(=O)CCNC(=O)[C@H](O)C(C)(C)COP(=O)(O)OP(=O)(O)OC[C@H]1O[C@@H](n2cnc3c(N)ncnc32)[C@H](O)[C@@H]1OP(=O)(O)O (stereo partly drawn) [β-hydroxylbutyryl-CoA, reference compound]	LovD (Aspergillus terreus)	excellent substrates
CC(C)(COP(=O)(O)OP(=O)(O)OC[C@H]1O[C@@H](n2cnc3c(N)ncnc32)[C@H](O)[C@@H]1OP(=O)(O)O)[C@@H](O)C(=O)NCCC(=O)NCCSC(=O)CC(=O)O [malonyl-CoA, reference compound]	LovD (Aspergillus terreus)	inactive
